Test system: AncSZ
methodNotes: phosphorylation enrichment, bacterial display (enrichment ratio); higher = better substrate or ligand; peptides without Tyr show the background;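 also: 11-residue human phosphosite peptides and single-mutation variants displayed on the E. coli surface, counted by deep sequencing, each peptide's frequency after selection divided by its frequency in the unselected input library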;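 also: frequency after pTyr selection over input frequency; kinase dosed for 20-30% of maximal phosphorylation in three min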
phosphorylation enrichment below 0.8 gives criterion not met; phosphorylation enrichment at or above it gives criterion met.

Here's what some known entries look like.
1) FSAGTYPRMEE [SYCN_Y108_L111M] : criterion met
2) FEEDSYSHIMA [FDPS_Y388_YF] : criterion met
3) VEFAKYGSLRG [RET_Y809_YF] : criterion not met
4) VMSMNYRVGAL [BCHE_Y174_V170M] : criterion not met
5) VQNIVYHTASI [CYP39A1_Y102_R103H] : criterion not met
6) ASNFNYFYHRE [KCNA1_Y413_V408A] : criterion met

Req: Hi, just wondering whether KVALPYKPFFF [POLE_Y100_YF] shows phosphorylation enrichment of 0.8 or higher.
Resp: criterion not met

Req: What do you have for AKNKDYMSIIR [GNE_Y197] ?
Resp: criterion not met

Req: What do you have for TGSFTCEAVEL [MTMR14_Y462_Y462C] ?
Resp: criterion met

Req: What do you have for TFGQVYKGRHV [TNIK_Y40_YF] ?
Resp: criterion not met

###

Test system: Fer (mouse)
methodNotes: phosphorylation enrichment, bacterial display (enrichment ratio); higher = better substrate or ligand; peptides without Tyr show the background
Would you kindly list phosphorylation enrichment for each of these sequences?
Numbers only.

Known phosphorylation enrichment results, listed for orientation:
1) RTCSSYTIEKI [PARP15_Y520_A521T] : 0.502
2) TDGNGYISFNE [LCP1_Y28] : 0.489
3) VTSLKYSTSPY [BRIP1_Y916] : 0.451
4) AKLVQYYMEHH [PTPN11_Y80_E76K] : 0.447
5) HKDNNYVSMWF [PAPOLG_Y432] : 2.8
6) DLDTDYGSGYP [RNASEH2A_Y206] : 0.682

Please give phosphorylation enrichment, item by item, for the list that follows.
1. CTTIHYNSMCN [TP53_Y234_Y236S]
2. HLTNQFMQRVA [PABPC4_Y382_Y382F]
3. NTGLEYIKFTW [HRH1_Y386_D385E]
4. FAKTQYPDIFA [CRX_Y63_V66I_YF]
5. CPSLPYSPVSS [CAMKK2_Y128]

Resp:
0.467
0.527
0.449
0.517
3.14

Please give phosphorylation enrichment, item by item, for the list that follows.
1. KFEDVYVGICL [B3GALNT1_Y269]
2. REGKIYEYNQV [ZNF665_Y162_H157R]

Resp:
1: 2.52; 2: 15.9

Please give phosphorylation enrichment, item by item, for the list that follows.
1. ASNFNYFYHRE [KCNA1_Y413_V408A]
2. ADARMYGVHPW [PLP1_Y207_L210H]
3. PHQTIYSALMI [FGF23_Y70]
4. SSAAGYACLAY [MVD_Y131]
5. KEDSVYGSQSV [NFKB2_Y868_A867V]
6. EQKKYYNAMKN [SCN5A_Y1495_K1500N]
7. FEKFLYFLPAS [DYNC2H1_Y346_H341Y_YF]

Resp:
0.455
0.355
20.3
0.574
0.498
0.354
0.55

###

studyTarget: EPHB1 (UniProt P54762)
Sequence (P54762 whole entry, looked up): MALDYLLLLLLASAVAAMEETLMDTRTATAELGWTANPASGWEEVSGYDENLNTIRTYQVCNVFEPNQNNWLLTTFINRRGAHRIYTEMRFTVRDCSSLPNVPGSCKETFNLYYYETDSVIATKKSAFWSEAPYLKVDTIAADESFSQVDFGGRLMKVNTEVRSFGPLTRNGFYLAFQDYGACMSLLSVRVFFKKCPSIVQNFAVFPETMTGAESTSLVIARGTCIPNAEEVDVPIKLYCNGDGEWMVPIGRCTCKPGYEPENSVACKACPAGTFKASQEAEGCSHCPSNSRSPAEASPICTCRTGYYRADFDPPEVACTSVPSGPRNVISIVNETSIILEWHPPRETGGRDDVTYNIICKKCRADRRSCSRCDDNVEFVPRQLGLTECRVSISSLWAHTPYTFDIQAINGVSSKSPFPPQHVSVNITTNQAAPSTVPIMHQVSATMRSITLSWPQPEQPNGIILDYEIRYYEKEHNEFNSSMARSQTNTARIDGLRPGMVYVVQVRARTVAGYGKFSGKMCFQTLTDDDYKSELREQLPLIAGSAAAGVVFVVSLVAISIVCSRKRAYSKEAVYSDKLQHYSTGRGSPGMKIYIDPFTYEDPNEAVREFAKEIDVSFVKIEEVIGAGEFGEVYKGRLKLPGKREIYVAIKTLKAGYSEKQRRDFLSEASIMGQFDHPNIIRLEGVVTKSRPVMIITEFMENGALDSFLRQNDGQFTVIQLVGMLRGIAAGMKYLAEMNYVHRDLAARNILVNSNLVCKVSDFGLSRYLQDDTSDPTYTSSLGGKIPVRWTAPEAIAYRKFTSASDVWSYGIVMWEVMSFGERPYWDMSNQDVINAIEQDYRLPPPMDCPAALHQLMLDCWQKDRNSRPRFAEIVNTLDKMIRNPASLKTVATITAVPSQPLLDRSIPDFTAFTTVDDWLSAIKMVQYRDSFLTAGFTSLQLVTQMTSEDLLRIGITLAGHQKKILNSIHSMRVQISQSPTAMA
methodNotes: phosphorylation enrichment, bacterial display (enrichment ratio); higher = better substrate or ligand; peptides without Tyr show the background
phosphorylation enrichment below 0.5 gives 0.0; phosphorylation enrichment at or above it gives 1.0.

Here's what some known entries look like.
1. GLRFGYGVLGG [KRTAP20-2_Y15_YF] : 0.0
2. DDEESYENVPR [FCRL3_Y722_N721S] : 0.0
3. EMQAAYQKVVA [HBD_Y131_Q126E] : 0.0

Req: Hi, just wondering whether ALTDNYMFLVI [HAGH_Y61_YF] shows phosphorylation enrichment of 0.5 or higher.
Resp: 1.0

Req: What do you have for SSAAGYACLAY [MVD_Y131] ?
Resp: 1.0
